Just for reference, ChEMBL document CHEMBL5303573 is where these values come from.

- condition.summary: parabacteroides distasonis, 12 h, 2 µM;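 also: drug levels quantified by LC–MS before versus after incubation with the gut bacterium to assess microbial biotransformation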
- Description: The drug is tested on Parabacteroides distasonis strain: ATCC8503 for biotransformation. The drug concentrations were measured before and after a 12-h incubation by liquid-chromatography-coupled mass spectrometry (LC–MS)
readout.name: Bacterial Biotransformation

[
  {
    "compound": "CN(C)C(=O)Oc1cc(OC(=O)N(C)C)cc(C(O)CNC(C)(C)C)c1 (stereo not drawn) [BAMBUTEROL]",
    "Bacterial Biotransformation": "Compound NOT metabolized"
  },
  {
    "compound": "CCOC(=O)[C@H](CCc1ccccc1)N[C@H]1CCc2ccccc2N(CC(=O)O)C1=O [BENAZEPRIL]",
    "Bacterial Biotransformation": "Compound metabolized"
  },
  {
    "compound": "CCN(CC)C(=O)C1(c2ccccc2)CC1CN (stereo not drawn)",
    "Bacterial Biotransformation": "Compound NOT metabolized"
  },
  {
    "compound": "CN1CCC(=C2c3ccccc3CC(=O)c3sccc32)CC1.O=C(O)/C=C/C(=O)O [KETOTIFEN FUMARATE]",
    "Bacterial Biotransformation": "Compound NOT metabolized"
  },
  {
    "compound": "CC(=O)Nc1ccc(OC(C)=O)cc1 [DIACETAMATE]",
    "Bacterial Biotransformation": "Compound metabolized"
  },
  {
    "compound": "COC(=O)[C@H](c1ccccc1Cl)N1CCc2sccc2C1.O=S(=O)(O)O [CLOPIDOGREL BISULFATE]",
    "Bacterial Biotransformation": "Compound metabolized"
  },
  {
    "compound": "O=C(O[C@H]1C[C@H]2CC[C@@H](C1)[N+]21CCCC1)C(O)(c1ccccc1)c1ccccc1.[Cl-] [TROSPIUM CHLORIDE]",
    "Bacterial Biotransformation": "Compound NOT metabolized"
  },
  {
    "compound": "CCCc1nn(C)c2c(=O)[nH]c(-c3cc(S(=O)(=O)N4CCN(C)CC4)ccc3OCC)nc12.O=C(O)CC(O)(CC(=O)O)C(=O)O [SILDENAFIL CITRATE]",
    "Bacterial Biotransformation": "Compound NOT metabolized"
  }
]

Can you look up the measured Bacterial Biotransformation of CNCC[C@H](Oc1cccc2ccccc12)c1cccs1 [DULOXETINE] for me?
Compound NOT metabolized

Quick one: Bacterial Biotransformation of CCN(CC)CCNC(C(=O)OCCC(C)C)c1ccccc1.Cl.Cl (stereo not drawn) ?
Compound NOT metabolized

# input compound: CNCCC(Oc1ccc(C(F)(F)F)cc1)c1ccccc1 (stereo not drawn) [FLUOXETINE] ; wanted: its Bacterial Biotransformation
Compound metabolized

Could you share which Bacterial Biotransformation value was measured for COc1ccc2c(c1)c(CC(=O)O)c(C)n2C(=O)c1ccc(Cl)cc1 [INDOMETHACIN] ?
Compound metabolized

Would you mind telling me what Bacterial Biotransformation value was observed for O=C1CN2Cc3c(ccc(Cl)c3Cl)N=C2N1 [ANAGRELIDE] ?
Compound NOT metabolized

Fill in: Bacterial Biotransformation of COc1cc2nc(N3CCN(C(=O)C4CCCO4)CC3)nc(N)c2cc1OC (stereo not drawn) [TERAZOSIN] is ___
Compound NOT metabolized

# get_value(readout='Bacterial Biotransformation', item= O=C(NCc1ccccc1)OCCO [BURAMATE] )
Compound NOT metabolized

// lookup Bacterial Biotransformation for Nc1nc(NC2CC2)c2ncn([C@H]3C=C[C@@H](CO)C3)c2n1.Nc1nc(NC2CC2)c2ncn([C@H]3C=C[C@@H](CO)C3)c2n1.O=S(=O)(O)O [ABACAVIR SULFATE]
Compound NOT metabolized

Which Bacterial Biotransformation is listed for O=C(NC(Cc1cc(=O)[nH]c2ccccc12)C(=O)O)c1ccc(Cl)cc1 (stereo not drawn) [REBAMIPIDE] ?
Compound NOT metabolized

What measured Bacterial Biotransformation goes with COc1cc2nc(N3CCN(C(=O)c4ccco4)CC3)nc(N)c2cc1OC [PRAZOSIN] ?
Compound NOT metabolized
